Sourced from PubChem BioAssay (NCI)

assay: NCI Yeast Anticancer Drug Screen. Data for the mlh1 rad18 strain (AID 175); conditions: S. cerevisiae mlh1 rad18 strain growth inhibition; at 50.0 µM; stronger effect = higher value
This is part of a sample that, as a whole, favours compounds with a hit. Of some 79,000 tested, about 15% had one in any assay.
Below is a list of entries, each paired with its recorded growth inhibition value.
A number alone suffices; assume %.

Illustrative cases are given below, each with its answer.
compound: COc1cccc([B-]23OCC[N+]2(CNC(=O)c2ccccc2O)CCO3)c1 (configuration not stated)
growth inhibition, %: 19.4

compound: OC1(C#Cc2ccccc2)c2ccccc2C(O)(C#Cc2ccccc2)c2ccccc21 (configuration not stated)
growth inhibition, %: 10.1

compound: Cc1cccc(C(C)C)c1NC(=O)C(=O)C(C#N)c1ccc(CC#N)cc1 (configuration not stated)
growth inhibition, %: 14.2

compound: COc1ccc(C2=CC(=O)C(C)(C#N)CC2)cc1 (configuration not stated)
growth inhibition, %: 4.8

Prompt: Determine its reported growth inhibition: NC1=C(O)C(=O)C(c2ccc3c(c2)CCC3)O1 (configuration not stated)
Response: -9.1

Prompt: Determine its reported growth inhibition: CCOC(=O)C(CNCc1ccccc1)C1CCCCC1 (configuration not stated)
Response: 16.1

Prompt: Determine its reported growth inhibition: COc1ccc(/C=C2/SC(=Nc3ccccc3)N(NC(=O)Cc3ccccc3)C2=O)cc1
Response: -22.2

Prompt: Determine its reported growth inhibition: NCCC(=O)NCCSSCCNC(=O)CCN
Response: 15.1

Prompt: Determine its reported growth inhibition: Cc1ccc(N2CCCCN(c3ccc(C)cc3)/C(c3ccccc3)=C\2c2ccccc2)cc1
Response: -29.9

Prompt: Determine its reported growth inhibition: CC(/C=C1\N=C(c2ccccc2)OC1=O)=C\c1ccccc1
Response: -28.9

Prompt: Determine its reported growth inhibition: COc1ccc(CSC(=S)Nc2ccc(F)c(C)c2)cc1
Response: 10.6

Prompt: Determine its reported growth inhibition: COc1ccc(/C=C2\C(=O)N(C(=O)c3ccc(NC(C)=O)cc3)N=C2C)cc1
Response: -41.2
